- assayed_system: T1, κ-opioid receptor (guinea pig (endogenous in guinea pig …, UniProt P41144 1-380))
- T1 construct: κ-opioid receptor, guinea pig, endogenous in brain membrane homogenate; defined by displacement of [^3H]HS665; In membranes, not on intact cells; also called KOR; k-opioid receptor; source: endogenous, guinea pig brain membrane homogenate
- T1 sequence (P41144 whole entry): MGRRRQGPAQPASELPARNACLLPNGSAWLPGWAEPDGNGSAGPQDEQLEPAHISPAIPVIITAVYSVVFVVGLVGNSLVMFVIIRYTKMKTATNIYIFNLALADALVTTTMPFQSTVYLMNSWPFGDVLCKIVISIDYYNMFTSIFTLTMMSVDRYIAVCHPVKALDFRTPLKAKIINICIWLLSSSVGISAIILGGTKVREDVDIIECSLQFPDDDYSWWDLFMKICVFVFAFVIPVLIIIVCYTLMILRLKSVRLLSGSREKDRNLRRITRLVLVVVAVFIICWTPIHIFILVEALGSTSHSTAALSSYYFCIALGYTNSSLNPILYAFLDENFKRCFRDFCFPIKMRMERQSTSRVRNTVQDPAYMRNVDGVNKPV
- assay_notes: radioligand binding; displacement of [^3H]HS665 from guinea pig brain membrane homogenate by unlabelled ligand (10^-10 to 10^-5 M); 50 mM Tris-HCl pH 7.4, 25 °C, 30 min; non-specific binding with 10 μM HS665; IC50 converted into Ki by Cheng-Prusoff
- experimental_setup: one partner purified
Where no end group is shown, it is not given here. [ ]: non-standard residue; d: D form. The star is where a group is joined. Kyn = Nc1ccccc1C(=O)C[C@H](N)C(=O)O; NMeF = CN[C@@H](Cc1ccccc1)C(=O)O; NHCH2CH2OH = OCCN*
measurement_label: Ki

Example binders with recorded Ki:
binder	Ki
YPF[Kyn]-NH2 (N-terminus assumed; SMILES NC(=O)[C@H](CC(=O)c1ccccc1N)NC(=O)[C@H](Cc1ccccc1)NC(=O)[C@@H]1CCCN1C(=O)[C@@H](N)Cc1ccc(O)cc1) [Peptide K3]	> 10 µM
Y[dA]G[NMeF][NHCH2CH2OH]-{kynurenic acid (ester on OH)} (the order of couplings in Scheme 1 (ethanolamine-kyna ester, Boc-N-Me-Phe, Boc-Gly, Boc-DAla, Boc-Tyr) agrees; the drawn structure is in Scheme 1; also called kyna-containing peptide; source: synthetic peptide (solution phase synthesis, RP-HPLC purified, TFA salt)) [Peptide KA1]	> 10 µM
Y[dA]GF[Kyn]-OMe [Peptide K4]	> 10 µM
Y[dA]GF[Kyn]-NH2 [Peptide K6]	0.128 µM

Proceeding to the next binder to report its Ki.
Field request: Ki | item: Y[dA]GF[Kyn]-OH [Peptide K5]
> 10 µM

Reference source for all entries: paper PMC7072329
